Source listed as patent US20260174875A1.

hGLP-1R Potency, 1% HSA, EC50 [pM]: recorded values
target: human GLP-1 receptor (human, UniProt P43220 24-463); assay: cell-based or functional assay
Numbered stars: 1 amine (or outer) side, 2 acyl side, 3 side chain; on linkers, the order of the positions; unused ones are H or OH. Square brackets hold non-standard residues; d marks the D form. Side chains are listed from the residue outwards. * marks the point of attachment. C18 diacid = O=C(O)CCCCCCCCCCCCCCCCC(=O)*; γGlu = O=C(O)[C@H](CCC(=O)[*:2])N[*:1]; Chem. 27 = not defined here; Chem. 28 = not defined here; AEEA = NCCOCCOCC(=O)O; Aib = CC(C)(N)C(=O)O
readoutKind: hGLP-1R Potency, 1% HSA, EC50 [pM]

1) Compound 92 (peptide) peptide: H[Aib]HGTFTSDYSILLEEQAAREFIEWLLAGGPSSGAGQAPGQAPGASHLSTAQTQRLSAELHRLATLPK([AEEA-AEEA-γGlu-C18 diacid])TETGSGSP-NH2
13.4 pM
2) Compound 70 (peptide) peptide: H[Aib]HGTFTSDYSILLEEQAAREFIEWLLAGGPSRGAPPPSGGGEASELSTAALGRLSAELHK([AEEA-AEEA-γGlu-C18 diacid])LATLPRTETGSGSP-NH2
18.4 pM
3) Compound 104 (reading uncertain) peptide: H[Aib]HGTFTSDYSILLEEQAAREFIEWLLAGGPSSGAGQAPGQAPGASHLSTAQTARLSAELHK(Chem. 27)LATLPRTETGSGSP-NH2
19.1 pM
4) Compound 37 (reading uncertain) peptide: H[Aib]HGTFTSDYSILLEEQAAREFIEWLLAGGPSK(Chem. 28)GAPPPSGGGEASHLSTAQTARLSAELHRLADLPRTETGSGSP-NH2
188 pM
5) Compound 113 (peptide) peptide: Y[Aib]EGTFTSDYSILLEEQAAREFIEWLLAGGPSSGAGQAPGQAPGASHLSTAQTARLSAELHK([AEEA-AEEA-γGlu-C18 diacid])LATLPRTETGSGSP-NH2
57.5 pM
6) Compound 71 (peptide) peptide: H[Aib]HGTFTSDYSILLEEQAAREFIEWLLAGGPSRGAPPPSGGGEASHLSTQTQGRLSAELHK([AEEA-AEEA-γGlu-C18 diacid])LATLPRTETGSGSP-NH2
18.4 pM
